# Human HSD2/HSD1 per entry
experimental target: human 11β-HSD1 (Homo sapiens, UniProt P28845)
Construct: the full-length cDNAs of human or marine 11β-HSD1 and 11β-HSD2 were isolated from the cDNA libraries; made in house; host or cells: HEK-293 (stably transfected, pcDNA3); microsomal fraction
Sequence (P28845 whole entry): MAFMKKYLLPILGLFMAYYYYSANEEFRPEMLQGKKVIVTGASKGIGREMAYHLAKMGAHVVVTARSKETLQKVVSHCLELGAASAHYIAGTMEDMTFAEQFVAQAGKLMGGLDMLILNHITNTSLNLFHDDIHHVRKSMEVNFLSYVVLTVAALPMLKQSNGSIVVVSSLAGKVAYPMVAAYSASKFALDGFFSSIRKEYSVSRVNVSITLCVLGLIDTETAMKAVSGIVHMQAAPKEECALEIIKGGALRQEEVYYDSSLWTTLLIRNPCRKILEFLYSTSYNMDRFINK
run description: Inhibition of human 11β-HSD1, SPA with microsomes from transfected HEK-293 cells
Format: biochemical
condition parameters: selectivity ratio IC50 human 11β-HSD2 / human 11β-HSD1
I'd appreciate a reply containing only the number, no unit.

Guide cases for Human HSD2/HSD1, answers given:
C=C(C)[C@@H](O)CC[C@@H](C)[C@@H]1CC[C@]2(C)C3=C(CC[C@@]12C)[C@@]1(C)CC[C@H](O)C(C)(C)C1CC3 (stereo partly drawn) [Compound 5, (24R)-Eupha-8,25-diene-3β,24-diol]: 63.7
CC(C)=CCC[C@@H](C)[C@@H]1CC[C@]2(C)C3=C(CC[C@@]12C)[C@@]1(C)CC[C@H](O)C(C)(C)[C@@H]1CC3 [Compound 3, Euphol]: 24.6
C=C(CC[C@](C)(O)[C@@H]1CC[C@]2(C)C3CCC4C(C)(C)[C@@H](O)CC[C@]4(C)C3CC[C@@]12C)C(C)C (stereo partly drawn) [Compound 1, Euphane-3β,20-dihydroxy-24-ene]: 234.6
CC(C)=CCC[C@@H](C)[C@@H]1CC[C@]2(C)C(=O)[C@]3(CC[C@@]12C)[C@@H](O)CC1C(C)(C)[C@@H](O)CC[C@@]13C (stereo partly drawn) [Compound 2, Kansuinone]: 2.35
C[C@H](C/C=C/C(C)(C)O)[C@@H]1CC[C@]2(C)C3=C(CC[C@@]12C)[C@@]1(C)CC[C@H](O)C(C)(C)C1CC3 (stereo partly drawn) [Compound 6, (20R,23E)-Eupha-8,23-diene-3β,25-diol]: 41.7

Continue with the next compound.
Form field: Human HSD2/HSD1 recorded for CC(C)=CCCC(C)C1CCC2(C)C3=C(CCC12C)C1(C)CCC(O)C(C)(C)C1CC3=O (stereo not drawn) [Compound 4, Kansenone] with human 11β-HSD1 (Homo sapiens, UniProt P28845) (enter value)
38
